Measured inhibition at 13.4 µM, listed per entry for reference.
# subjectOfTest: human AR (Homo sapiens, UniProt P10275)
# Construct: expressed in transfected cells; host or cells: COS-1
# Sequence (P10275 whole entry): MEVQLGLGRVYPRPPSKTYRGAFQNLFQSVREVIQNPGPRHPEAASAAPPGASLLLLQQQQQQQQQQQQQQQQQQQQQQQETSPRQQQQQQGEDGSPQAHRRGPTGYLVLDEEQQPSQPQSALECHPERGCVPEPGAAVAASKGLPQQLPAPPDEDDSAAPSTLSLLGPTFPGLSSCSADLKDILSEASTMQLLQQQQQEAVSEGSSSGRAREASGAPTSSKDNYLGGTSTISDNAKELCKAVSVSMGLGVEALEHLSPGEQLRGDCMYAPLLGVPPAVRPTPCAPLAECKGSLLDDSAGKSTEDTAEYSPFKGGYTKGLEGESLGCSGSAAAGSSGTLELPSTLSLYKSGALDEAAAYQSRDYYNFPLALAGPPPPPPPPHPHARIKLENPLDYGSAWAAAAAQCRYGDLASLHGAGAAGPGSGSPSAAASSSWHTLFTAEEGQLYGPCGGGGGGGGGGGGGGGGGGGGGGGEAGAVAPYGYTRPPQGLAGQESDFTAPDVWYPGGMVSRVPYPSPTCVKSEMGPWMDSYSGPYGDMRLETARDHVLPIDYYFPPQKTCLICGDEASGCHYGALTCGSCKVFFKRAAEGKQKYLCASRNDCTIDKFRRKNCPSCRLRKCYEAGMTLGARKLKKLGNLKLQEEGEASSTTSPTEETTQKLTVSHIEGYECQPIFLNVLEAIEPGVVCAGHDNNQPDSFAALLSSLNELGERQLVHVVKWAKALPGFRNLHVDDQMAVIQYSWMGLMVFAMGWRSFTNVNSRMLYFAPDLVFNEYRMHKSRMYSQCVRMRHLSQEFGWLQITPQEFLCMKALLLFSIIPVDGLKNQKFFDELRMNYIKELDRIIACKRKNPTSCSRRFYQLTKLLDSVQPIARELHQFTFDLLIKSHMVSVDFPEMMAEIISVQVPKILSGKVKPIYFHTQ
# procedureSummary: Competitive AR binding assay against [3H]-R1881 in transiently transfected COS-1 cells
# assayConditions: Table 1; compound 13.4 μM; [3H]-R1881 1.34 nM; complete inhibition equals 100%; read-out: Inhibition of [3H]-R1881 binding at 1.34 nM ± S.D.
# value in %; strip the unit string

COc1cccc(C2=NOC(C)(Cc3ccccc3)C2)c1 (stereo not shown) [Example 2ab]	64.2

(Q) What value of inhibition at 13.4 µM has been reported for the following compound? c1ccc2c(C3=NOC4CCCCC34)cccc2c1 (single isomer, unassigned) [Example 33a]
(A) 68.4

(Q) # input compound: CCCCN1C(c2ccc3ccccc3c2)=NOC1(C)Cc1ccccc1 (stereo not shown) [Example 54ab] ; wanted: its inhibition at 13.4 µM
(A) 28.2

(Q) // returns reported inhibition at 13.4 µM for input CC1(Cc2ccccc2)CC(c2ccc(Cl)cc2)=NO1 (stereo not shown) [Example 7ab]
(A) 51

(Q) Query (compound): Fc1ccccc1C1=NOC(Cc2ccccc2)(c2ccccc2)C1 (stereo not shown) [Example 15ab] ; field requested: inhibition at 13.4 µM
(A) 49.5

###

# subjectOfTest: human AR (Homo sapiens, UniProt P10275)
# Construct: expressed in transfected cells; host or cells: COS-1
# procedureSummary: Competitive AR binding assay against [3H]-R1881 in transiently transfected COS-1 cells
# assayConditions: Table 1; compound 13.4 μM; [3H]-R1881 1.34 nM; complete inhibition equals 100%
readout: Inhibition of [3H]-R1881 binding at 1.34 nM ± S.D. (%)
Reply with just the number (in %).

(Q) Would you mind telling me what Inhibition of [3H]-R1881 binding at 1.34 nM ± S.D. value was observed for CC1(Cc2ccccc2)CC(c2ccccc2Cl)=NO1 (centres unmarked) [Example 5b] ?
(A) 59.7

(Q) Can you share its Inhibition of [3H]-R1881 binding at 1.34 nM ± S.D.? I mean this compound: O=[N+]([O-])c1ccc(C2=NOC3CCCCC23)c(C(F)(F)F)c1 (single isomer, unassigned) [Example 38b]
(A) 90.7

(Q) Value lookup for Inhibition of [3H]-R1881 binding at 1.34 nM ± S.D.; key = COc1ccccc1C1=NOC(Cc2ccccc2)(c2ccccc2)C1 (single isomer, unassigned) [Example 12a]
(A) 55.9

(Q) Endpoint output: Inhibition of [3H]-R1881 binding at 1.34 nM ± S.D. of COc1ccc(CC2=NOC(C)(Cc3ccccc3)N2CC(C)C)cc1 (single isomer, unassigned) [Example 65b] . Value?
(A) 13.5

(Q) Recorded Inhibition of [3H]-R1881 binding at 1.34 nM ± S.D. of Clc1ccc(C2=NOC3CCCCC23)cc1 (single isomer, unassigned) [Example 32b] , please.
(A) 0

(Q) Recorded Inhibition of [3H]-R1881 binding at 1.34 nM ± S.D. for COc1ccccc1C1=NOC(Cc2ccccc2)(c2ccccc2)C1 (single isomer, unassigned) [Example 12b] , please?
(A) 30.2

(Q) // query Inhibition of [3H]-R1881 binding at 1.34 nM ± S.D. value for entry Fc1ccccc1C1=NOC2CCCCC12 (single isomer, unassigned) [Example 27b]
(A) 0

(Q) So what's the measured Inhibition of [3H]-R1881 binding at 1.34 nM ± S.D. for this one? Fc1ccccc1C1=NOC2CCCCC12 (single isomer, unassigned) [Example 27a]
(A) 17.0
